measurement.protocol: Selectivity index, ratio of IC50 for cytotoxicity against bovine MDBK cells to IC50 for Trypanocidal activity against Trypanosoma congolense
Hi! Just check whether selectivity ratio is below 6. Below gives fulfilled, equal or above gives not fulfilled.

compound.string | category.label
CC(=O)Oc1ccc(OC(C)=O)c(-c2ncc(-c3ccccc3OC(C)=O)o2)c1 | fulfilled

Data request: selectivity ratio strictly < 6 for this compound? "Oc1ccccc1-c1coc(-c2cccc(O)c2O)n1"
Data returned: not fulfilled

Data request: selectivity ratio strictly < 6 for this compound? "CCCOc1ccccc1-c1cnc(-c2cccc(OC)c2OC)o1"
Data returned: not fulfilled

Data request: selectivity ratio strictly < 6 for this compound? "COc1ccc(OC)c(-c2cnc(-c3ccccc3)o2)c1"
Data returned: not fulfilled
